- Tested on: NCI-H522
- experiment: NCI tumour cell line growth inhibition, 48 h
The source made the active and inactive calls. Cut-off read from the data, not from the text of the source: active = GI50 up to about 1.1 µM and inactive = higher.
Documented GI50 across a set of molecules

Would you please look over these solved cases?
>>> assayresult("O=C1C=CC(S(=O)(=O)C2=C/C(=C/Nc3ccc(Cl)cc3)C(=O)C=C2)=C/C1=C/Nc1ccc(Cl)cc1")
"> 100 µM (inactive)"
>>> assayresult("Cc1ccc2c(O)cc(-c3sc4ccccc4c3C)nc2n1")
"16.4 µM (inactive)"
>>> assayresult("OC(c1cc(-c2ccc(Cl)cc2)nc2ccccc12)C1CCCCN1 (centres undefined)")
"1.27 µM (inactive)"

Query molecule follows.
Tell me the measured GI50 of CCN(CC(=O)O)CC(=O)O , please.
> 100 µM (inactive)

* * *

- Tested on: Hs-578T
- experiment: NCI tumour cell line growth inhibition, 48 h
Calls of active or inactive are those of the source. No stated cut-off is given here; in the data, active = GI50 up to about 1.1 µM and inactive = higher.
Documented GI50 across a set of molecules

Tell me the measured GI50 of CC1=C(/C=C/C(C)=C/C=C/C(C)=C/C(=O)O)C(C)(C)CCC1 [TRETINOIN] , please.
> 43 µM (inactive)

Tell me the measured GI50 of C=CCSc1nc2c(N)ncnc2n1C1OC(CO)C(O)C1O (centres undefined) , please.
> 100 µM (inactive)

Tell me the measured GI50 of CC1=C(C(=O)c2ccccc2)C23C(=O)N(c4ccccc4)C(=O)C2=C(O)C=CC3(O)N1 (centres undefined) , please.
> 100 µM (inactive)

Tell me the measured GI50 of O=C1C2=C(CC3=C(C2)CS(=O)(=O)C3)C(=O)C2=C1CC1=C(C2)CS(=O)(=O)C1 , please.
> 32.4 µM (inactive)

* * *

Documented GI50 across a set of compounds
- Tested on: SF-539
- experiment: NCI tumour cell line growth inhibition, 48 h
Activity calls are given as the source filed them. Rule as the data show it: active = GI50 up to about 1.1 µM and inactive = higher.

>>> assayresult("Nc1nc(-c2cccc([N+](=O)[O-])c2)cc(-c2cc(-c3cccc([N+](=O)[O-])c3)nc(N)n2)n1")
"> 100 µM (inactive)"
>>> assayresult("Cc1ccc(S(=O)(=O)NC(C)C(=O)O)cc1 (stereo not given)")
"> 100 µM (inactive)"
>>> assayresult("C#CCNC(=O)NC(CCCCNC(=O)OCc1ccccc1)C(=O)OCc1ccccc1 (stereo not given)")
"38.9 µM (inactive)"
>>> assayresult("c1ccc(Cn2c(-c3ccc(-c4ccccc4)cc3)cc3ccccc32)cc1")
"> 100 µM (inactive)"
>>> assayresult("S=c1sc2c(s1)SCCCCSCCCCSc1sc(=S)sc1SCCCCSCCCCS2")
"> 100 µM (inactive)"

Record lookup: for SF-539, what GI50 belongs to C/C(=N/Nc1ccc([N+](=O)[O-])cc1[N+](=O)[O-])C(CC(C(=O)NCc1ccccc1)/C(C)=N\Nc1ccc([N+](=O)[O-])cc1[N+](=O)[O-])C(=O)NCc1ccccc1 (stereo not given) ?
4.06 µM (inactive)

Record lookup: for SF-539, what GI50 belongs to Cc1ccccc1C(=O)NC(O)(C(F)(F)F)C(F)(F)F ?
> 100 µM (inactive)

Record lookup: for SF-539, what GI50 belongs to O=C(c1ccc(Cl)cc1)N(Cc1cccnc1)C(=S)N(Cc1cccnc1)C(=O)c1ccc(Cl)cc1 ?
23 µM (inactive)

Record lookup: for SF-539, what GI50 belongs to Cc1ncc(CO)c(/C=N/CCCCCC/N=C/c2c(CO)cnc(C)c2[O-])c1[O-].[Mg+2] ?
> 100 µM (inactive)

Record lookup: for SF-539, what GI50 belongs to Cc1ccc(S(=O)(=O)NNC(C[N+](=O)[O-])c2ccccc2)cc1 (stereo not given) ?
27.1 µM (inactive)

Record lookup: for SF-539, what GI50 belongs to CC(C)(Oc1ccc(C2C[C@H]2Cl)cc1)C(=O)O (stereo not given in full) ?
> 100 µM (inactive)

Record lookup: for SF-539, what GI50 belongs to CC(Oc1ccc(OCC2CCCCC2)cc1)C(=O)NCc1ccco1 (stereo not given) ?
37.7 µM (inactive)

Record lookup: for SF-539, what GI50 belongs to CCOC(=O)c1c(-c2ccc(Cl)cc2)c(C#N)c(=S)n(C2OC(CO)C(O)C(O)C2O)c1-c1ccccc1 (stereo not given) ?
19.5 µM (inactive)
